The entries below are paired with their reported logP.
# assay-comment: log P by HPLC
# Format: physicochemical
# experimental-conditions: HPLC, gradient method, acetonitrile/0.1% aqueous phosphoric acid; EEC directive 79/831 Annex V. A8
endpoint-name: logP

>>> number("CCCNc1c(-c2c(F)cc(F)cc2F)c(Cl)nc2nc(C)nn12")
2.75
>>> number("CC(C)C(C)Nc1c(-c2ccc(Cl)cc2Cl)c(Cl)nc2nc(C3CC3)nn12 (single isomer, unassigned) [compound 756]")
4.72
>>> number("CCCN(CC1CCCO1)c1c(-c2ccccc2Cl)c(Cl)nc2nc(C)nn12 (stereo not shown)")
3.7
>>> number("Cc1nc2nc(Cl)c(-c3c(F)cccc3Cl)c(NCC(C)(C)C)n2n1")
3.59
>>> number("Cc1nc2nc(Cl)c(-c3c(F)cc(F)cc3F)c(N3CCC(C(F)(F)F)CC3)n2n1")
3.6
>>> number("CCN(CCOC)c1c(-c2ccc(F)cc2F)c(Cl)nc2nc(C3CC3)nn12")
3.46
>>> number("Cc1cccc(Nc2c(-c3ccc(F)cc3F)c(Cl)nc3nc(C4CC4)nn23)c1")
3.61
>>> number("CCCN(Cc1cccs1)c1c(-c2ccc(F)cc2F)c(Cl)nc2nc(C3CC3)nn12")
4.64
>>> number("Fc1cccc(F)c1-c1c(Cl)nc2nc(C3CC3)nn2c1N1CC=CCO1")
3.32
>>> number("CCNc1c(-c2ccc(F)cc2F)c(Cl)nc2nc(C3CC3)nn12")
2.97
>>> number("CC(C)(C)Nc1c(-c2ccc(F)cc2F)c(Cl)nc2nc(C(F)(F)F)nn12")
4.19
>>> number("OC1CCN(c2c(-c3ccc(F)cc3F)c(Cl)nc3nc(C4CC4)nn23)C1 (stereo not shown)")
2.2
>>> number("C=CCN(CC)c1c(-c2ccccc2Cl)c(Cl)nc2nc(C)nn12")
3.5
>>> number("CCC(C)Nc1c(-c2c(F)cccc2F)c(Cl)nc2nc(C)nn12 (stereo not shown)")
2.82
>>> number("CC1C=CC(C)N1c1c(-c2c(F)cccc2Cl)c(Cl)nc2nc(C3CC3)nn12 (stereo not shown)")
4.15
>>> number("Cc1nc2nc(Cl)c(-c3ccc(F)cc3F)c(NCC(C)(C)C)n2n1")
3.4
>>> number("C=C(C)CNc1c(-c2c(F)cc(F)cc2F)c(Cl)nc2nc(C)nn12")
2.76
>>> number("Fc1cc(F)c(-c2c(Cl)nc3nc(C(F)(F)F)nn3c2N2CCCCC2C(F)(F)F)c(F)c1 (stereo not shown)")
4.76
>>> number("CCc1nc2nc(Cl)c(-c3c(F)cc(F)cc3F)c(N3CCOCC3)n2n1")
2.8
>>> number("CCc1nc2nc(Cl)c(-c3c(F)cc(F)cc3F)c(NCCC(F)(F)F)n2n1")
3.18
>>> number("Cc1nc2nc(Cl)c(-c3ccccc3Cl)c(NC(C)CC(C)C)n2n1 (stereo not shown)")
3.84
>>> number("C=C(C)CN(CC)c1c(-c2ccc(F)cc2Cl)c(Cl)nc2nc(C3CC3)nn12")
4.77
>>> number("C=C(C)CNc1c(-c2c(F)cccc2Cl)c(Cl)nc2nc(C)nn12")
2.8
>>> number("Cc1nc2nc(Cl)c(-c3ccc(F)cc3Cl)c(NCC(F)(F)F)n2n1")
2.8
>>> number("Clc1ccccc1-c1c(Cl)nc2nc(C3CC3)nn2c1NCC1CC1(Cl)Cl (stereo not shown)")
3.78
>>> number("CC(C)CNc1c(-c2c(F)cccc2F)c(Cl)nc2nc(C3CC3)nn12")
3.44
>>> number("Fc1cccc(F)c1-c1c(Cl)nc2nc(C3CC3)nn2c1N1CCCCO1")
3.47
>>> number("CC(Nc1c(-c2c(F)cccc2F)c(Cl)nc2nc(C3CC3)nn12)C(F)(F)F (stereo not shown)")
3.98
>>> number("Cc1nc2nc(Cl)c(-c3ccc(F)cc3F)c(NC(C)C)n2n1")
2.69
>>> number("CC(C)(C)CNc1c(-c2ccc(F)cc2F)c(Cl)nc2nc(C3CC3)nn12")
4
>>> number("Fc1ccc(-c2c(Cl)nc3nc(C4CC4)nn3c2NC2CCCCC2C(F)(F)F)c(F)c1 (stereo not shown)")
4.08
>>> number("CN(CCCl)c1c(-c2ccc(F)cc2F)c(Cl)nc2nc(C3CC3)nn12")
3.5
>>> number("COC(=O)C(Nc1c(-c2c(F)cc(F)cc2F)c(Cl)nc2nc(C)nn12)C(C)C (stereo not shown)")
3.11
>>> number("CCN(CC)c1c(-c2ccccc2Cl)c(Cl)nc2nc(C)nn12")
3.24

---

# assay-comment: log P by HPLC
# Type: physicochemical
# experimental-conditions: HPLC, gradient method, acetonitrile/0.1% aqueous phosphoric acid; EEC directive 79/831 Annex V. A8
logP values, listed per item
endpoint-name: logP

>>> number("CN(C)CCN(C)c1c(-c2ccc(F)cc2F)c(Cl)nc2nc(C3CC3)nn12")
1.56
>>> number("Fc1ccc(-c2c(Cl)nc3nc(C(F)(F)F)nn3c2NC2CCC(C(F)(F)F)CC2)c(F)c1 (centres unmarked)")
4.43
>>> number("Cc1nc2nc(Cl)c(-c3c(F)cccc3Cl)c(NCC(C)C)n2n1")
3.14
>>> number("C=C(C)CN(CC)c1c(-c2ccc(F)cc2Cl)c(Cl)nc2nc(C)nn12")
4.06
>>> number("CCOC(=O)CN(CC)c1c(-c2c(F)cc(F)cc2F)c(Cl)nc2nc(C)nn12")
3.14
>>> number("CC(Nc1c(-c2ccc(F)cc2F)c(Cl)nc2nc(C3CC3)nn12)C1CCCCC1 (centres unmarked)")
4.84
>>> number("CCCN(CC1CCCO1)c1c(-c2c(F)cc(F)cc2F)c(Cl)nc2nc(C)nn12 (centres unmarked)")
3.68
>>> number("CC1CC(C)CN(c2c(-c3ccc(F)cc3F)c(Cl)nc3nc(C4CC4)nn23)C1 (centres unmarked)")
4.72

---

Reported logP values for the following molecules.
# assay-comment: log P by HPLC
# Assay type: physicochemical
# experimental-conditions: HPLC, gradient method, acetonitrile/0.1% aqueous phosphoric acid; EEC directive 79/831 Annex V. A8
endpoint-name: logP

>>> result("Cc1nc2nc(Cl)c(-c3ccccc3Cl)c(NCC(C)C)n2n1")
3.1
>>> result("Fc1ccc(-c2c(Cl)nc3nc(C4CC4)nn3c2N2CCC3(CC2)OCCO3)c(F)c1")
3.22
>>> result("CCCN(CC1CCCCO1)c1c(-c2ccc(F)cc2F)c(Cl)nc2nc(C3CC3)nn12 (stereo not shown)")
4.71
>>> result("CCC1=CCN(c2c(-c3ccc(F)cc3F)c(Cl)nc3nc(C(F)(F)F)nn23)CC1")
4.95

---

# assay-comment: log P by HPLC
# Format: physicochemical
# experimental-conditions: HPLC, gradient method, acetonitrile/0.1% aqueous phosphoric acid; EEC directive 79/831 Annex V. A8
# binarize logP: threshold 3 inclusive, high side y, low side n

>>> class("CC(C)CN(C)c1c(-c2c(F)cccc2Cl)c(Cl)nc2nc(C3CC3)nn12 [compound 698]")
"y"
>>> class("Fc1ccc(-c2c(Cl)nc3nc(C4CC4)nn3c2N2CCCC2C(F)(F)F)c(F)c1 (stereo not shown) [compound 729]")
"y"
>>> class("CC(Nc1c(-c2c(F)cc(F)cc2F)c(Cl)nc2nc(C(C)(C)C)nn12)C(F)(F)F (stereo not shown) [compound 9]")
"y"
>>> class("Fc1ccc(-c2c(Cl)nc3nc(C4CC4)nn3c2NC2CCC(C(F)(F)F)CC2)c(F)c1 (stereo not shown) [compound 659]")
"y"
>>> class("C=C(C)CN(CC)c1c(-c2ccc(Cl)cc2Cl)c(Cl)nc2nc(C)nn12 [compound 783]")
"y"
>>> class("CC(C)Nc1c(-c2ccccc2Cl)c(Cl)nc2nc(C3CC3)nn12 [compound 17]")
"y"
>>> class("Cc1nc2nc(Cl)c(-c3ccccc3Cl)c(N(C)CC3OCCO3)n2n1 [compound 219]")
"n"
>>> class("CC(C)CN(C)c1c(-c2ccc(F)cc2F)c(Cl)nc2nc(C(F)(F)F)nn12 [compound 544]")
"y"
>>> class("C=CCONc1c(-c2c(F)cccc2F)c(Cl)nc2nc(C)nn12 [compound 140]")
"n"
>>> class("C=C(C)CNc1c(-c2c(F)cccc2F)c(Cl)nc2nc(C3CC3)nn12 [compound 760]")
"y"
>>> class("C#CCN(C)c1c(-c2ccc(F)cc2F)c(Cl)nc2nc(C3CC3)nn12 [compound 662]")
"y"
>>> class("Cc1nc2nc(Cl)c(-c3c(F)cc(F)cc3F)c(NCC#N)n2n1 [compound 18]")
"n"
>>> class("Cc1nc2nc(Cl)c(-c3c(F)cccc3F)c(N3CCOCC3)n2n1 [compound 176]")
"n"
>>> class("Fc1cccc(Cl)c1-c1c(Cl)nc2nc(C3CC3)nn2c1N1CCCC1C(F)(F)F (stereo not shown) [compound 703]")
"y"
>>> class("C=C(C)CNc1c(-c2c(F)cc(F)cc2F)c(Cl)nc2nc(CC)nn12 [compound 21]")
"y"
>>> class("CC1CCCCN1c1c(-c2c(F)cc(F)cc2F)c(Cl)nc2nc(C3CC3)nn12 (stereo not shown) [compound 674]")
"y"
>>> class("COC(=O)C1CCN(c2c(-c3ccc(F)cc3F)c(Cl)nc3nc(C4CC4)nn23)CC1 [compound 731]")
"y"
>>> class("CCN(CC1CCCO1)c1c(-c2c(F)cc(F)cc2F)c(Cl)nc2nc(C)nn12 (stereo not shown) [compound 159]")
"y"
>>> class("CC(C)(C)CNc1c(-c2ccc(F)cc2Cl)c(Cl)nc2nc(C3CC3)nn12 [compound 622]")
"y"
>>> class("CCN(CCN)c1c(-c2ccc(F)cc2F)c(Cl)nc2nc(C3CC3)nn12 [compound 724]")
"n"
>>> class("Cc1nc2nc(Cl)c(-c3ccccc3Cl)c(NCC3CC3)n2n1 [compound 216]")
"n"
>>> class("Cc1nc2nc(Cl)c(-c3c(F)cc(F)cc3F)c(N3Cc4ccccc4CO3)n2n1 [compound 168]")
"y"
>>> class("Cc1nc2nc(Cl)c(-c3ccccc3Cl)c(NC(C)C)n2n1 [compound 214]")
"n"
>>> class("Fc1ccc(-c2c(Cl)nc3nc(C4CC4)nn3c2N2CC=CCC2)c(F)c1 [compound 608]")
"y"
>>> class("CC1CCCCN1c1c(-c2c(F)cccc2Cl)c(Cl)nc2nc(C3CC3)nn12 (stereo not shown) [compound 705]")
"y"
>>> class("Fc1ccc(-c2c(Cl)nc3nc(C(F)(F)F)nn3c2N2CCC(C(F)(F)F)CC2)c(F)c1 [compound 805]")
"y"
>>> class("Fc1cc(F)c(-c2c(Cl)nc3nc(C(F)(F)F)nn3c2N2CCOCC2)c(F)c1 [compound 34]")
"y"
>>> class("CC(C)CN(C)c1c(-c2c(F)cccc2F)c(Cl)nc2nc(C3CC3)nn12 [compound 676]")
"y"
>>> class("N#CCNc1c(-c2ccc(F)cc2F)c(Cl)nc2nc(C3CC3)nn12 [compound 713]")
"n"
>>> class("Cc1nc2nc(Cl)c(-c3c(F)cccc3F)c(NC3CCCCC3)n2n1 [compound 186]")
"y"
>>> class("Fc1ccc(-c2c(Cl)nc3nc(C(F)(F)F)nn3c2NCC(F)(F)F)c(F)c1 [compound 532]")
"y"
>>> class("CCN(CC1CCCO1)c1c(-c2ccccc2Cl)c(Cl)nc2nc(C)nn12 (stereo not shown) [compound 239]")
"y"

The measurements presented in this section are drawn from patent US7186831B2.
